B1: library; a variant is named by its letters at N, in order (parent)
chain: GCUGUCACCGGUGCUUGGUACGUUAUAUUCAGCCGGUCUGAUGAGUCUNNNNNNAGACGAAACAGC

- Variants of: B1
- Experiment description: FACS-Seq fitted mean relative fluorescence mCherry/BFP with ligand (log10 relative fluorescence); HEK293T overexpressing SLC46A1; ligand concentration (+) FACS-Seq: 6 mM; higher = higher reporter protein expression
- Measurement context: with (6R,S)-folinic acid; ligand present: yes
// values below are reported FACS-Seq fitted mean (log10)
Measured quantity: FACS-Seq fitted mean (log10)

>>> recorded_measurement("UGGAGU")
0.658
>>> recorded_measurement("GCAGUA")
0.482
>>> recorded_measurement("CUGAAA")
0.578
>>> recorded_measurement("CCUAGC")
0.3
>>> recorded_measurement("GCGAAC")
0.261
>>> recorded_measurement("AAGAGU")
0.369
>>> recorded_measurement("UAAUUG")
0.456
>>> recorded_measurement("UGUAUU")
0.253
>>> recorded_measurement("UGAAAG")
0.436
>>> recorded_measurement("UGAGGG")
0.587
>>> recorded_measurement("GAUGAC")
0.593
>>> recorded_measurement("AACACG")
0.436
>>> recorded_measurement("GCGUGG")
0.444
>>> recorded_measurement("UUCUGG")
0.696
>>> recorded_measurement("GUAAGC")
0.33
>>> recorded_measurement("ACGGCA")
0.139
>>> recorded_measurement("AUAGCG")
0.461
>>> recorded_measurement("GCUCGU")
0.851
>>> recorded_measurement("AUUAGA")
-0.224
>>> recorded_measurement("AACUUA")
0.0419
>>> recorded_measurement("AACCAG")
0.407
>>> recorded_measurement("GAAGAC")
0.574
